Tested on: P388 leukemia ip, CD2F1 mice, survival T/C
Assay: NCI In Vivo Anticancer Drug Screen. Data for tumor model P388 Leukemia (intraperitoneal) in CD2F1 (CDF1) mice
Conditions: endpoint: median survival time; dose: 12.5 mg/kg/injection; schedule: Q01DX005 (ip); vehicle: saline with Tween-80; higher = longer survival
Method: The antitumor activity of compounds was measured in mice bearing transplantable tumors. Survival or tumor size were measured and the results are expressed as the measurement made in the treated group (T) divided by the measurement made in the vehicle treated control group (C). The tumor model used in this assay is P388 Leukemia (intraperitoneal) in CD2F1 (CDF1) mice
Inconclusive results and toxic doses are left out.
Quantity measured: T/C

> print(dat)
                                    compound  observed.measurement
 1                 CSC(=S)N/N=C(\C)Cc1ccccn1      102 % of control
 2  CC(C)(C)OC(=O)NC(CCC(=O)O)(Cc1ccccc1)C(=O)NC(CCC(=O)O)(Cc1ccccc1)C(=O)OCc1ccccc1 (centres undefined)      105 % of control
 3        COc1cc(NCCCCCNCC(C)(C)C)c2ncccc2c1      109 % of control
 4  CCCCC(CCCCCC(CCCC)C1NCCc2cc(OC)c(OC)cc21)C1NCCc2cc(OC)c(OC)cc21 (centres undefined)       93 % of control
 5  CCOC(=O)Nc1cc2c(c(N)n1)N=C(c1ccc(C)c(C)c1)CN2       88 % of control
 6  CCOC(=O)c1cc2c(=O)c3c(ccc4ccccc43)oc2n(C)c1=O       96 % of control
 7  N=C1C=CC(=C(c2ccc(N)cc2)c2ccc(N)cc2)C=C1       98 % of control
 8  O=C(NCC(O)CNC(=O)Nc1ccc(C2=NCC(O)CN2)cc1)Nc1ccc(C2=NCC(O)CN2)cc1 (centres undefined)       95 % of control
 9      COc1ccc(Cc2cc3c(cc2OCC(N)=O)OCO3)cc1       90 % of control
10      O=C1CCC(=O)c2c1c(O)c1c(O)ccc(O)c1c2O       87 % of control
11  COc1ccc(-c2nnc(-c3ccc(Cl)cc3)c(=O)[nH]2)cc1       90 % of control
12                      N#Cc1ccc(NN=NCCF)cc1      121 % of control
13  CC(=O)Nc1ccc(SSc2ccc(NC(C)=O)c3cccnc23)c2ncccc12       86 % of control
14            C/C(=N\NC(=S)N1CCCCCC1)c1nccs1       98 % of control

====

system: P388 leukemia ip, CD2F1 mice, survival T/C; assay: NCI In Vivo Anticancer Drug Screen. Data for tumor model P388 Leukemia (intraperitoneal) in CD2F1 (CDF1) mice; settings: endpoint: median survival time; dose: 50.0 mg/kg/injection; schedule: Q01DX009 (ip); vehicle: water; higher = longer survival
Toxic doses and inconclusive results are not listed.
Reported T/C values are given for each entry in this list.
Quantity measured: T/C

> print(dat)
                                   compound                            assayed.system  quantity.measured  observed.measurement
1                    COc1cccc(CCC(=O)O)c1OC  P388 leukemia ip, CD2F1 mice, survival T/C                T/C      100 % of control
2                              O=NNc1ncccn1  P388 leukemia ip, CD2F1 mice, survival T/C                T/C      102 % of control
3  CC(N)C(=O)OCN1C(=O)C2C3C=CC(C2C1=O)C1C(=O)N(COC(=O)C(C)N)C(=O)C31 (stereo not drawn)  P388 leukemia ip, CD2F1 mice, survival T/C                T/C      100 % of control
4  CC(=O)NC1C(=O)OC(C(O)CO)C1O (stereo not drawn)  P388 leukemia ip, CD2F1 mice, survival T/C                T/C       94 % of control
5  O=C1C2C3C=CC(O3)C2C(=O)N1O (stereo not drawn)  P388 leukemia ip, CD2F1 mice, survival T/C                T/C      105 % of control
6  NCC1OC(n2cnc3c(N)ncnc32)C(O)C1O (stereo not drawn)  P388 leukemia ip, CD2F1 mice, survival T/C                T/C      107 % of control
7  NCCC(=O)OCN1C(=O)C2C3C=CC(C2C1=O)C1C2C(=O)N(COC(=O)CCN)C(=O)C2C31 (stereo not drawn)  P388 leukemia ip, CD2F1 mice, survival T/C                T/C       99 % of control
8        COc1cc2c[n+]3c4c(cccc4c2cc1OC)CCC3  P388 leukemia ip, CD2F1 mice, survival T/C                T/C      110 % of control
